Attribution: ChEMBL document CHEMBL1152745

System: A-427
assay-overview: Growth inhibition of human A427 cells assessed as cell growth at 20 uM after 96 hrs using crystal violet staining by microtiter assay relative to control
Type: functional
condition-details: A-427, 96 h, values are per cent of control
Quick rule for you: growth, % of control at 20 µM under 80% gets Criterion met, anything else gets Criterion not met.

{"given-smiles": "C=CCN1C[C@@H]2CCC[C@H]1CN2Cc1ccc(OC)cc1", "cat": "Criterion met"}
{"given-smiles": "C=CCN1C[C@H]2C(=O)CC[C@@H]1CN2Cc1ccc(OC)cc1", "cat": "Criterion met"}
{"given-smiles": "C=CCN1C[C@H]2CCC[C@@H]1CN2Cc1ccc(OC)cc1", "cat": "Criterion met"}
{"given-smiles": "COc1ccc(CN2C[C@H]3CCC(=O)[C@@H]2CN3Cc2ccccc2)cc1", "cat": "Criterion met"}
{"given-smiles": "COc1ccc(CN2C[C@@H]3CCC(=O)[C@H]2CN3C(=O)c2ccccc2)cc1", "cat": "Criterion met"}
{"given-smiles": "CCCN1C[C@H]2C(=O)CC[C@@H]1CN2Cc1ccc(OC)cc1", "cat": "Criterion not met"}
{"given-smiles": "COc1ccc(CN2C[C@@H]3CCC(=O)[C@H]2CN3CC=C(C)C)cc1", "cat": "Criterion not met"}
{"given-smiles": "COc1ccc(CN2C[C@H]3CCC(=O)[C@@H]2CN3C(=O)c2ccccc2)cc1", "cat": "Criterion not met"}
{"given-smiles": "CCCN1C[C@@H]2C(=O)CC[C@H]1CN2Cc1ccc(OC)cc1", "cat": "Criterion not met"}
{"given-smiles": "C=CCN1C[C@@H]2C(=O)CC[C@H]1CN2Cc1ccc(OC)cc1", "cat": "Criterion met"}
{"given-smiles": "COc1ccc(CN2C[C@@H]3CCC(=O)[C@H]2CN3Cc2ccccc2)cc1", "cat": "Criterion met"}
{"given-smiles": "COc1ccc(CN2C[C@@H]3CCC(=O)[C@H]2CN3c2ccccc2)cc1", "cat": "Criterion not met"}
{"given-smiles": "COc1ccc(CN2C[C@H]3CCC(=O)[C@@H]2CN3c2ccccc2)cc1", "cat": "Criterion met"}

----------
Test system: 5637
assay-overview: Growth inhibition of human 5637 cells assessed as cell growth at 20 uM after 96 hrs using crystal violet staining by microtiter assay relative to control
Format: functional
condition-details: Homo sapiens, 5637, 96 h; values are per cent of control
Quick rule for you: growth, % of control at 20 µM under 80% gets 1, anything else gets -1.

{"given-smiles": "COc1ccc(CN2C[C@@H]3CCC(=O)[C@H]2CN3Cc2ccccc2)cc1", "cat": 1}
{"given-smiles": "COc1ccc(CN2C[C@H]3CCC(=O)[C@@H]2CN3Cc2ccccc2)cc1", "cat": 1}
{"given-smiles": "COc1ccc(CN2C[C@H]3CCC(=O)[C@@H]2CN3c2ccccc2)cc1", "cat": 1}
{"given-smiles": "C=CCN1C[C@@H]2CCC[C@H]1CN2Cc1ccc(OC)cc1", "cat": -1}
{"given-smiles": "COc1ccc(CN2C[C@H]3CCC(=O)[C@@H]2CN3C(=O)c2ccccc2)cc1", "cat": -1}
{"given-smiles": "CCCN1C[C@@H]2C(=O)CC[C@H]1CN2Cc1ccc(OC)cc1", "cat": -1}
{"given-smiles": "C=CCN1C[C@@H]2C(=O)CC[C@H]1CN2Cc1ccc(OC)cc1", "cat": 1}
{"given-smiles": "COc1ccc(CN2C[C@H]3CCC(=O)[C@@H]2CN3CC=C(C)C)cc1", "cat": 1}
